// data source = patent US8772480B2

Recorded pKi, one value per entry.
- TARGET DESC: PI3Kα (Homo sapiens (Human))
- CONDITION: read-out: PI3Kα AlphaScreen ® Ki
pKi: −log10 of the molar value.

- MOLECULE: "COc1ccc(Nc2ncc(CNCCO)cc2-c2nc(C)nc(N)n2)cn1"
  TARGET DESC: "PI3Kα (Homo sapiens (Human))"
  QUALIFIER: "="
  pKi: 6.87
- MOLECULE: "CCC(N)(CC)c1cnc(Nc2cnc(OC)c(F)c2)c(-c2nc(C)nc(N)n2)c1"
  TARGET DESC: "PI3Kα (Homo sapiens (Human))"
  QUALIFIER: "="
  pKi: 6.96
- MOLECULE: "Cc1nc(N)cc(-c2cccnc2Nc2cccc(O)c2)n1"
  TARGET DESC: "PI3Kα (Homo sapiens (Human))"
  QUALIFIER: "="
  pKi: 7.62
- MOLECULE: "COc1ncc(Nc2ncc([C@@H](C)N3CCN(S(C)(=O)=O)CC3)cc2-c2nc(C)nc(N)n2)cc1C(C)C"
  TARGET DESC: "PI3Kα (Homo sapiens (Human))"
  QUALIFIER: "="
  pKi: 7.62
- MOLECULE: "COc1ncc(Nc2ncc(C(C)CO)cc2-c2nc(C)nc(N)n2)cc1F (stereo not shown)"
  TARGET DESC: "PI3Kα (Homo sapiens (Human))"
  QUALIFIER: "="
  pKi: 8.70
- MOLECULE: "Cc1cnc(Nc2cccc3[nH]ccc23)c(-c2nc(C)nc(N)n2)c1"
  TARGET DESC: "PI3Kα (Homo sapiens (Human))"
  QUALIFIER: "="
  pKi: 6.89
- MOLECULE: "COCCOc1cnc(Nc2cnc(OC)c(NS(C)(=O)=O)c2)c(-c2nc(C)nc(N)n2)c1"
  TARGET DESC: "PI3Kα (Homo sapiens (Human))"
  QUALIFIER: "="
  pKi: 7.26
- MOLECULE: "COc1ccc(Nc2ncc(C(C)(O)C(F)(F)F)cc2-c2nc(C)nc(N)n2)cn1 (stereo not shown)"
  TARGET DESC: "PI3Kα (Homo sapiens (Human))"
  QUALIFIER: "="
  pKi: 6.91
- MOLECULE: "CC(=O)Nc1ccc(Nc2ncccc2-c2ncnc3[nH]cnc23)cn1"
  TARGET DESC: "PI3Kα (Homo sapiens (Human))"
  QUALIFIER: "<"
  pKi: 5.82
- MOLECULE: "COc1ccc(Nc2ncc(CN3CCN(S(C)(=O)=O)CC3)cc2-c2ncnc(C)n2)cn1"
  TARGET DESC: "PI3Kα (Homo sapiens (Human))"
  QUALIFIER: "="
  pKi: 5.80
- MOLECULE: "COc1ccc(Nc2ncc([C@@H](O)C(F)(F)F)cc2-c2nc(C)nc(N)n2)cn1.COc1ccc(Nc2ncc([C@H](O)C(F)(F)F)cc2-c2nc(C)nc(N)n2)cn1 (racemic)"
  TARGET DESC: "PI3Kα (Homo sapiens (Human))"
  QUALIFIER: "="
  pKi: 7.48
- MOLECULE: "COc1ncc(Nc2ncc(C(C)(C)N3CCOCC3)cc2-c2nc(C)nc(N)n2)cc1F"
  TARGET DESC: "PI3Kα (Homo sapiens (Human))"
  QUALIFIER: "="
  pKi: 8.22
- MOLECULE: "COc1ccc(Nc2ncc(C(N)c3ccc(S(=O)(=O)N(C)C)cc3)cc2-c2nc(C)nc(N)n2)cn1 (stereo not shown)"
  TARGET DESC: "PI3Kα (Homo sapiens (Human))"
  QUALIFIER: "="
  pKi: 7.74
- MOLECULE: "COc1ccc(Nc2ncc(C3=CCNCC3)cc2-c2nc(C)nc(N)n2)cn1"
  TARGET DESC: "PI3Kα (Homo sapiens (Human))"
  QUALIFIER: "="
  pKi: 7.68
- MOLECULE: "COc1ccc(Nc2ncc(CN3CC(NS(C)(=O)=O)C3)cc2-c2nc(C)nc(N)n2)cn1"
  TARGET DESC: "PI3Kα (Homo sapiens (Human))"
  QUALIFIER: "="
  pKi: 7.41
- MOLECULE: "COc1cc(Nc2ncc(C(C)(C)O)cc2-c2nc(C)nc(N)n2)cnc1OC"
  TARGET DESC: "PI3Kα (Homo sapiens (Human))"
  QUALIFIER: "="
  pKi: 7.72

###

Recorded measurements of POC (Percent of control) ERK1, one per entry
- TARGET DESC: ProfilerPro Kinase Selectivity Assay Kit kinases (Homo sapiens)
- Sequence (P27361 2-379 limits assumed): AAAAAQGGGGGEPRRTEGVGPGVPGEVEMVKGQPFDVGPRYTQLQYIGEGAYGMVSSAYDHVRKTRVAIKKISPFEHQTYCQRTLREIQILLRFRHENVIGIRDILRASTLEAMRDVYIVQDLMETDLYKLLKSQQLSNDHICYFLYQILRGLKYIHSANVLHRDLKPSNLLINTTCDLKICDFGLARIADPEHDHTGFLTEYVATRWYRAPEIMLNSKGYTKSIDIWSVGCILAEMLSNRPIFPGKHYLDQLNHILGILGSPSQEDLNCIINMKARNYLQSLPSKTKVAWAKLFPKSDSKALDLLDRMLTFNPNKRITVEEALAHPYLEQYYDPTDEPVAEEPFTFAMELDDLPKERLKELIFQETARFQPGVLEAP
- Type: biochemical
- CONDITION: ERK1; 1 μM compound concentration
QUANTITY MEASURED: POC (Percent of control) ERK1

- COMPOUND: "c1cnc(Nc2cccc3[nH]ccc23)c(-c2ncnc3[nH]cnc23)c1 [Example 19]"
  TARGET DESC: "ProfilerPro Kinase Selectivity Assay Kit kinases (Homo sapiens)"
  QUANTITY MEASURED: "POC (Percent of control) ERK1"
  RESULT: "93 POC"
- COMPOUND: "Cc1nc(N)nc(-c2cccnc2Nc2cccc3[nH]ccc23)n1 [Example 22]"
  TARGET DESC: "ProfilerPro Kinase Selectivity Assay Kit kinases (Homo sapiens)"
  QUANTITY MEASURED: "POC (Percent of control) ERK1"
  RESULT: "99 POC"
- COMPOUND: "COc1ccc(Nc2ncc(CN3CCN(C(C)=O)CC3)cc2-c2nc(C)nc3[nH]cnc23)cn1 [Example 89]"
  TARGET DESC: "ProfilerPro Kinase Selectivity Assay Kit kinases (Homo sapiens)"
  QUANTITY MEASURED: "POC (Percent of control) ERK1"
  RESULT: "100 POC"
- COMPOUND: "Cc1cnc(Nc2cccc3[nH]ncc23)c(-c2nc(C)nc(N)n2)c1 [Example 47]"
  TARGET DESC: "ProfilerPro Kinase Selectivity Assay Kit kinases (Homo sapiens)"
  QUANTITY MEASURED: "POC (Percent of control) ERK1"
  RESULT: "103 POC"
- COMPOUND: "Cc1nc(N)nc(-c2cc(CN3CCN(S(C)(=O)=O)CC3)cnc2Nc2cccc(O)c2)n1 [Example 30]"
  TARGET DESC: "ProfilerPro Kinase Selectivity Assay Kit kinases (Homo sapiens)"
  QUANTITY MEASURED: "POC (Percent of control) ERK1"
  RESULT: "93 POC"

###

- TARGET DESC: PI3Kα (Homo sapiens (Human), UniProt P42336)
- Sequence (P42336 whole entry): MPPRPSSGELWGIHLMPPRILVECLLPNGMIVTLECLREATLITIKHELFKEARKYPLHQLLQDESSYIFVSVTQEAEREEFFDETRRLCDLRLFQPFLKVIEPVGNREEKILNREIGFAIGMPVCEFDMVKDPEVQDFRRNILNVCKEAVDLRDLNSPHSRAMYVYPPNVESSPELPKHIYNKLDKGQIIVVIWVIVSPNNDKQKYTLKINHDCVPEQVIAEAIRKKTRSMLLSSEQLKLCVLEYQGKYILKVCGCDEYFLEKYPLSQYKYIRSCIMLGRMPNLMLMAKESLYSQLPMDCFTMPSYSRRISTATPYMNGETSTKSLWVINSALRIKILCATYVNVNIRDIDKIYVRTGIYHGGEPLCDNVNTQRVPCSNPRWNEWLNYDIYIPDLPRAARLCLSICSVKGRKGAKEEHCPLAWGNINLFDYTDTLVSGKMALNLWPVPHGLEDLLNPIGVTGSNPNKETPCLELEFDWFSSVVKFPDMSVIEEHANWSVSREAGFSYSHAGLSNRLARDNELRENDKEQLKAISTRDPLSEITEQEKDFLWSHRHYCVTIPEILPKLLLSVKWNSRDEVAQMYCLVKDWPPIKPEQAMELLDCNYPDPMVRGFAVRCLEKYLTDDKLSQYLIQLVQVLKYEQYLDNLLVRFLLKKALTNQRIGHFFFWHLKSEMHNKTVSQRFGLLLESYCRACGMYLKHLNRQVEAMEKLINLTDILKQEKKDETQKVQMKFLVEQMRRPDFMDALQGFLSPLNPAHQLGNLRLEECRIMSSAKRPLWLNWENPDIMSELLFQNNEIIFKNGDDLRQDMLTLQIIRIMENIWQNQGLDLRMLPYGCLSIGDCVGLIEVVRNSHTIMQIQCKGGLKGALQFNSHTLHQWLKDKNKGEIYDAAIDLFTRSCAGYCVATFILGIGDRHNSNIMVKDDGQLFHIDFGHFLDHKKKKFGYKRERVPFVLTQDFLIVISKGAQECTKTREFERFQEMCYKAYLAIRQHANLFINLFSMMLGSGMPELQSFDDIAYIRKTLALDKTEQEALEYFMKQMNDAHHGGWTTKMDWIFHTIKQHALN
- Sequence (P27986 whole entry partner): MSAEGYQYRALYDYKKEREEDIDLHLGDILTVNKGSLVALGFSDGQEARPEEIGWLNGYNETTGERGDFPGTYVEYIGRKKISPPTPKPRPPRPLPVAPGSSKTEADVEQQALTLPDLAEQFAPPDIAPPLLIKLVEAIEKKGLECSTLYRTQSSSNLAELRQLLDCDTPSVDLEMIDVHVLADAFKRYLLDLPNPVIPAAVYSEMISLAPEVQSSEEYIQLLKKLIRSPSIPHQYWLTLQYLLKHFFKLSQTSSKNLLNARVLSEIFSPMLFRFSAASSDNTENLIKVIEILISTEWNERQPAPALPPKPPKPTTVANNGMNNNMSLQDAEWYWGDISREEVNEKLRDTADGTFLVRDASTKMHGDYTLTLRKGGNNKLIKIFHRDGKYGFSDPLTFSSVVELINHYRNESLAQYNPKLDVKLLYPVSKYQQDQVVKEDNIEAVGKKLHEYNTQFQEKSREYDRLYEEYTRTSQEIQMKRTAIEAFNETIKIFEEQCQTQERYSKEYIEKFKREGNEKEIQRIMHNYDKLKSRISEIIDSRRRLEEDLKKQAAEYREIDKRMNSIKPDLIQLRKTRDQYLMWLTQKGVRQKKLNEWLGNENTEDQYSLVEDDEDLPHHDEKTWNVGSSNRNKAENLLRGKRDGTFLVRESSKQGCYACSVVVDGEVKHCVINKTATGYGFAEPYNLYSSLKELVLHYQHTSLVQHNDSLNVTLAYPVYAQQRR
- CONDITION: read-out: PI3Kα AlphaScreen ® Ki

- MOLECULE: "COc1ccc(Nc2ncc(CN3CCN(C(=O)N(C)C)CC3)cc2-c2nc(C)nc3[nH]cnc23)cn1"
  Ki, nM: 43
- MOLECULE: "COc1ccc(Nc2ncc(CNC(C)C)cc2-c2nc(C)nc3[nH]cnc23)cn1"
  Ki, nM: 120
- MOLECULE: "Cc1nc(-c2cc(C(C)N3CCOCC3)cnc2Nc2cnc(Cl)c(NS(C)(=O)=O)c2)c2nc[nH]c2n1 (centres unmarked)"
  Ki, nM: 3
- MOLECULE: "COc1ccc(Nc2ncc(N3CC[C@H](O)C3)cc2-c2nc(C)nc3[nH]cnc23)cn1"
  Ki, nM: 47
- MOLECULE: "Cc1nc(N)nc(-c2cc(-c3cnn(C)c3)cnc2Nc2cncc(F)c2)n1"
  Ki, nM: 14
- MOLECULE: "COc1ccc(Nc2ncc(CN3CCN(C(C)=O)CC3)cc2-c2nc(C)nc3[nH]cnc23)cn1"
  Ki, nM: 42
- MOLECULE: "Cc1nc(N)cc(-c2cnccc2Nc2cccc3[nH]ncc23)n1"
  Ki, nM: 359
- MOLECULE: "Cc1nc(N)nc(-c2cc(CN3CCN(S(C)(=O)=O)C[C@@H]3C)cnc2Nc2ccc(Cl)nc2)n1"
  Ki, nM: 32

###

- Tested on: phosphorylation of Akt at Serine 473 in U87 MG cells
- EXPERIMENT SUMMARY: cells
- CONDITION: Homo sapiens, U-87 MG, 2 h, read-out: U87Cell IC50, pAkt (Ser 473), U87 MG cells, two hours with compound
pIC50: −log10 of the molar value.

- MOL SMILES: "COc1ccc(Nc2ncc(CN3CC[S+]([O-])CC3)cc2-c2nc(C)nc(N)n2)cn1"
  QUALIFIER: "="
  pIC50: 6.91
- MOL SMILES: "COc1ccc(Nc2ncc(CN3CCn4ncnc4C3)cc2-c2nc(C)nc(N)n2)cn1"
  QUALIFIER: "="
  pIC50: 7.24
- MOL SMILES: "COc1ncc(Nc2ncc(CN3CCOCC3)cc2-c2nc(C)nc(N)n2)cc1F"
  QUALIFIER: "="
  pIC50: 7.85
- MOL SMILES: "COc1ncc(Nc2nc(-c3ccncc3)ccc2-c2nc(C)nc(N)n2)cc1F"
  QUALIFIER: "<"
  pIC50: 5.00
